tested on: Enterococcus faecium; assay: Antibacterial activity against vancomycin-sensitive Enterococcus faecium isolate 987
experimental endpoint: MIC (µM)
Give your result in µM as a bare value.

Check out these entries, answers already filled in.
N=C(N)NCCC[C@@H](NC(=O)CCCOc1ccc2ccccc2c1-c1c(OCCCC(=O)N[C@H](CCCNC(=N)N)C(=O)OCc2ccccc2)ccc2ccccc12)C(=O)OCc1ccccc1 (stereo in doubt; 21)
31
NCCCC[C@@H](NC(=O)CCCOc1ccc2ccccc2c1-c1c(OCCCC(=O)N[C@H](CCCCN)C(=O)OCc2ccccc2)ccc2ccccc12)C(=O)OCc1ccccc1
129

Moving on to another molecule below.
Given the entry "NCCCC[C@@H](NC(=O)CCCOc1ccc2ccccc2c1-c1c(OCCCC(=O)N[C@H](CCCCN)C(=O)OCc2cccc3ccccc23)ccc2ccccc12)C(=O)OCc1cccc2ccccc12" , report its measured MIC. 117

---

test system: Enterococcus faecium; experiment: Antibacterial activity against vancomycin-resistant Enterococcus faecium isolate 243; format: functional; conditions: Enterococcus faecium, isolate 243; read-out: MIC
experimental endpoint: MIC (µM)
Kindly provide the numeric value in µM only, without the unit symbol.

N=C(N)NCCC[C@@H](NC(=O)CCCOc1ccc2ccccc2c1-c1c(OCCCC(=O)N[C@H](CCCNC(=N)N)C(=O)NCc2ccccc2)ccc2ccccc12)C(=O)NCc1ccccc1
61

// switching to the query compound
Any idea what its MIC is? The compound is N=C(N)NCCC[C@@H](NC(=O)CCCOc1ccc2ccccc2c1-c1c(OCCCC(=O)N[C@H](CCCNC(=N)N)C(=O)OCc2ccccc2)ccc2ccccc12)C(=O)OCc1ccccc1 (stereo in doubt; 21) 61

---

test system: Enterococcus faecium; assay: Antibacterial activity against vancomycin-resistant Enterococcus faecium isolate 243; format: functional; details: Enterococcus faecium, isolate 243; read-out: MIC
experimental endpoint: MIC

CN[C@H](CC(C)C)C(=O)N[C@H]1C(=O)N[C@@H](CC(N)=O)C(=O)N[C@H]2C(=O)N[C@H]3C(=O)N[C@H](C(=O)N[C@H](C(=O)O)c4cc(O)cc(O)c4-c4cc3ccc4O)[C@H](O)c3ccc(c(Cl)c3)Oc3cc2cc(c3O[C@@H]2O[C@H](CO)[C@@H](O)[C@H](O)[C@H]2O[C@H]2C[C@](C)(N)[C@H](O)[C@H](C)O2)Oc2ccc(cc2Cl)[C@H]1O [VANCOMYCIN]
1 µM

Using the record for "NCCCC[C@@H](NC(=O)CCCOc1ccc2ccccc2c1-c1c(OCCCC(=O)N[C@H](CCCCN)C(=O)OCc2cccc3ccccc23)ccc2ccccc12)C(=O)OCc1cccc2ccccc12" , report its MIC. > 117 µM

# lookup: MIC of "NCCCC[C@@H](NC(=O)CCCOc1ccc2ccccc2c1-c1c(OCCCC(=O)N[C@H](CCCCN)C(=O)OCc2ccccn2)ccc2ccccc12)C(=O)OCc1ccccn1" > 129 µM

---

tested on: Enterococcus faecium; assay: Antibacterial activity against vancomycin-resistant Enterococcus faecium isolate 243; format: functional; conditions: Enterococcus faecium, isolate 243; read-out: MIC
Entries and their measured MIC follow.

N=C(N)NCCC[C@@H](NC(=O)CCCOc1ccc2ccccc2c1-c1c(OCCCC(=O)N[C@H](CCCNC(=N)N)C(=O)OCc2ccccn2)ccc2ccccc12)C(=O)OCc1ccccn1
> 122 µM
NCCCC[C@@H](NC(=O)CCCOc1ccc2ccccc2c1-c1c(OCCCC(=O)N[C@H](CCCCN)C(=O)OCc2ccccc2)ccc2ccccc12)C(=O)OCc1ccccc1
129 µM

Would you kindly look at the next entry?
Recall the recorded MIC for "N=C(N)NCCCC[C@@H](NC(=O)CCCOc1ccc2ccccc2c1-c1c(OCCCC(=O)N[C@H](CCCCNC(=N)N)C(=O)OCc2ccccc2)ccc2ccccc12)C(=O)OCc1ccccc1" with Enterococcus faecium and state it. 59 µM

---

tested on: Enterococcus faecium; assay: Antibacterial activity against vancomycin-sensitive Enterococcus faecium isolate 987
Measured MIC of individual entries
Number in µM, nothing else.

N=C(N)NCCCC[C@@H](NC(=O)CCCOc1ccc2ccccc2c1-c1c(OCCCC(=O)N[C@H](CCCCNC(=N)N)C(=O)OCc2ccccc2)ccc2ccccc12)C(=O)OCc1ccccc1
119

# ---- query compound ----
Name the reported MIC value associated with the compound "N=C(N)NCCC[C@@H](NC(=O)CCCOc1ccc2ccccc2c1-c1c(OCCCC(=O)N[C@H](CCCNC(=N)N)C(=O)NCc2ccccc2)ccc2ccccc12)C(=O)NCc1ccccc1" 122

Sourced from ChEMBL document CHEMBL1817589
